Test: Pharmacokinetics in female BALB/c mice
Format: in vivo
Conditions: mouse, PO 50 mg/kg, plasma, read-out: MRT(0-t)
measured.parameter: MRT last (h)

Cc1nc2c(F)cc(-c3nc(Nc4ccc(N5CCN(C(=O)c6cc(Cc7n[nH]c(=O)c8ccccc78)ccc6F)CC5)cn4)ncc3F)cc2n1C(C)C = 3.62

* * *

Test: Pharmacokinetics in female BALB/c mice
Assay type: in vivo
Conditions: mouse, PO 50 mg/kg, plasma
measured.parameter: AUC(0-t) (ng·h/mL)

Cc1nc2c(F)cc(-c3nc(Nc4ccc(N5CCN(C(=O)c6cc(Cc7n[nH]c(=O)c8ccccc78)ccc6F)CC5)cn4)ncc3F)cc2n1C(C)C [Compound C3] = 1700

* * *

Experiment: Pharmacokinetics in female BALB/c mice
Format: in vivo
Details: mouse, single IP 10 mg/kg, plasma
measured.parameter: Tmax

Cc1nc2c(F)cc(-c3nc(Nc4ccc(N5CCN(C(=O)c6cc(Cc7n[nH]c(=O)c8ccccc78)ccc6F)CC5)cn4)ncc3F)cc2n1C(C)C [Compound C3] = 15 min

* * *

Experiment: Pharmacokinetics in female BALB/c mice
Type: in vivo
Settings: mouse, single IP 10 mg/kg, plasma
measured.parameter: AUC(0-t) (µg·h/mL)

Cc1nc2c(F)cc(-c3nc(Nc4ccc(N5CCN(C(=O)c6cc(Cc7n[nH]c(=O)c8ccccc78)ccc6F)CC5)cn4)ncc3F)cc2n1C(C)C = 2.52

* * *

Assay: Pharmacokinetics in female BALB/c mice
Format: in vivo
Conditions: mouse, PO 50 mg/kg, plasma
Protocol: Pharmacokinetic parameters of the of C3 were measured after a single intraperitoneal injection (IP) of 10 mg/kg, or oral administration (PO) of 50 mg/kg in female BALB/c mice. […]
measured.parameter: Tmax (h)

Cc1nc2c(F)cc(-c3nc(Nc4ccc(N5CCN(C(=O)c6cc(Cc7n[nH]c(=O)c8ccccc78)ccc6F)CC5)cn4)ncc3F)cc2n1C(C)C [Compound C3] = 4

* * *

Experiment: Pharmacokinetics in female BALB/c mice
Assay type: in vivo
Conditions: mouse, single IP 10 mg/kg, plasma, read-out: MRT(0-t)
measured.parameter: MRT last (h)

Cc1nc2c(F)cc(-c3nc(Nc4ccc(N5CCN(C(=O)c6cc(Cc7n[nH]c(=O)c8ccccc78)ccc6F)CC5)cn4)ncc3F)cc2n1C(C)C [Compound C3] = 6.3

* * *

Test: Pharmacokinetics in female BALB/c mice
Format: in vivo
Conditions: mouse, PO 50 mg/kg, plasma
measured.parameter: Cmax (ng/mL)

Cc1nc2c(F)cc(-c3nc(Nc4ccc(N5CCN(C(=O)c6cc(Cc7n[nH]c(=O)c8ccccc78)ccc6F)CC5)cn4)ncc3F)cc2n1C(C)C = 292

* * *

Assay: Pharmacokinetics in female BALB/c mice
Assay type: in vivo
Conditions: mouse, single IP 10 mg/kg, plasma
measured.parameter: AUC(0-inf) (ng·h/mL)

Cc1nc2c(F)cc(-c3nc(Nc4ccc(N5CCN(C(=O)c6cc(Cc7n[nH]c(=O)c8ccccc78)ccc6F)CC5)cn4)ncc3F)cc2n1C(C)C [Compound C3] = 2670
